B1: library; a variant is named by its letters at N, in order (parent)
chain: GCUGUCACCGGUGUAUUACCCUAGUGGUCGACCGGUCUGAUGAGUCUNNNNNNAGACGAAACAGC

# Variants of: B1
# PROCEDURE SUMMARY: normalized RNA/DNA level with ligand (relative to sTRSVctl = 100) (log10 (% of sTRSVctl)); ligand: hypoxanthine (xanthine aptamer); higher = less ribozyme self-cleavage, higher mRNA level
# CONDITION NOTES: ligand concentration (+) RNA-Seq: 5 mM, HEK293T, reporter: mCherry (pCS4076), ligand present: yes
VALUE KIND: normalized RNA/DNA level with ligand (log10)

# RESIDUE CODES, REPORTED
measured = [
    ("GCUGUCACCGGUGUAUUACCCUAGUGGUCGACCGGUCUGAUGAGUCUCGCAAAAGACGAAACAGC [CGCAAA]", 1.9),
    ("GCUGUCACCGGUGUAUUACCCUAGUGGUCGACCGGUCUGAUGAGUCUCCGGAAAGACGAAACAGC [CCGGAA]", 1.91),
    ("GCUGUCACCGGUGUAUUACCCUAGUGGUCGACCGGUCUGAUGAGUCUGCAAGAAGACGAAACAGC [GCAAGA]", 1.94),
    ("GCUGUCACCGGUGUAUUACCCUAGUGGUCGACCGGUCUGAUGAGUCUGUUUAAAGACGAAACAGC [GUUUAA]", 1.92),
    ("GCUGUCACCGGUGUAUUACCCUAGUGGUCGACCGGUCUGAUGAGUCUGACCACAGACGAAACAGC [GACCAC]", 1.94),
    ("GCUGUCACCGGUGUAUUACCCUAGUGGUCGACCGGUCUGAUGAGUCUGCAUUAAGACGAAACAGC [GCAUUA]", 1.92),
    ("GCUGUCACCGGUGUAUUACCCUAGUGGUCGACCGGUCUGAUGAGUCUUAGACUAGACGAAACAGC [UAGACU]", 1.92),
    ("GCUGUCACCGGUGUAUUACCCUAGUGGUCGACCGGUCUGAUGAGUCUUCUAAGAGACGAAACAGC [UCUAAG]", 1.95),
    ("GCUGUCACCGGUGUAUUACCCUAGUGGUCGACCGGUCUGAUGAGUCUCAUCGAAGACGAAACAGC [CAUCGA]", 1.97),
    ("GCUGUCACCGGUGUAUUACCCUAGUGGUCGACCGGUCUGAUGAGUCUAACCAUAGACGAAACAGC [AACCAU]", 1.87),
    ("GCUGUCACCGGUGUAUUACCCUAGUGGUCGACCGGUCUGAUGAGUCUGCUAUAAGACGAAACAGC [GCUAUA]", 1.93),
    ("GCUGUCACCGGUGUAUUACCCUAGUGGUCGACCGGUCUGAUGAGUCUGAACAGAGACGAAACAGC [GAACAG]", 1.81),
    ("GCUGUCACCGGUGUAUUACCCUAGUGGUCGACCGGUCUGAUGAGUCUGCCCGUAGACGAAACAGC [GCCCGU]", 1.96),
    ("GCUGUCACCGGUGUAUUACCCUAGUGGUCGACCGGUCUGAUGAGUCUCCGCCAAGACGAAACAGC [CCGCCA]", 1.97),
    ("GCUGUCACCGGUGUAUUACCCUAGUGGUCGACCGGUCUGAUGAGUCUUCGCCCAGACGAAACAGC [UCGCCC]", 1.98),
    ("GCUGUCACCGGUGUAUUACCCUAGUGGUCGACCGGUCUGAUGAGUCUGGGUCGAGACGAAACAGC [GGGUCG]", 1.99),
    ("GCUGUCACCGGUGUAUUACCCUAGUGGUCGACCGGUCUGAUGAGUCUCUUGUGAGACGAAACAGC [CUUGUG]", 1.96),
    ("GCUGUCACCGGUGUAUUACCCUAGUGGUCGACCGGUCUGAUGAGUCUUCGUAUAGACGAAACAGC [UCGUAU]", 1.92),
    ("GCUGUCACCGGUGUAUUACCCUAGUGGUCGACCGGUCUGAUGAGUCUUAAGACAGACGAAACAGC [UAAGAC]", 1.87),
    ("GCUGUCACCGGUGUAUUACCCUAGUGGUCGACCGGUCUGAUGAGUCUCCUUUGAGACGAAACAGC [CCUUUG]", 1.96),
    ("GCUGUCACCGGUGUAUUACCCUAGUGGUCGACCGGUCUGAUGAGUCUAAGGUCAGACGAAACAGC [AAGGUC]", 1.95),
    ("GCUGUCACCGGUGUAUUACCCUAGUGGUCGACCGGUCUGAUGAGUCUGUAGUUAGACGAAACAGC [GUAGUU]", 1.96),
    ("GCUGUCACCGGUGUAUUACCCUAGUGGUCGACCGGUCUGAUGAGUCUUUCCCCAGACGAAACAGC [UUCCCC]", 1.93),
    ("GCUGUCACCGGUGUAUUACCCUAGUGGUCGACCGGUCUGAUGAGUCUCCAGGGAGACGAAACAGC [CCAGGG]", 1.89),
    ("GCUGUCACCGGUGUAUUACCCUAGUGGUCGACCGGUCUGAUGAGUCUUAAAAUAGACGAAACAGC [UAAAAU]", 1.89),
    ("GCUGUCACCGGUGUAUUACCCUAGUGGUCGACCGGUCUGAUGAGUCUUGGUCCAGACGAAACAGC [UGGUCC]", 1.98),
    ("GCUGUCACCGGUGUAUUACCCUAGUGGUCGACCGGUCUGAUGAGUCUUAGCGCAGACGAAACAGC [UAGCGC]", 1.95),
    ("GCUGUCACCGGUGUAUUACCCUAGUGGUCGACCGGUCUGAUGAGUCUGUUGGUAGACGAAACAGC [GUUGGU]", 1.93),
    ("GCUGUCACCGGUGUAUUACCCUAGUGGUCGACCGGUCUGAUGAGUCUCCACUAAGACGAAACAGC [CCACUA]", 1.97),
    ("GCUGUCACCGGUGUAUUACCCUAGUGGUCGACCGGUCUGAUGAGUCUAUGACUAGACGAAACAGC [AUGACU]", 1.95),
    ("GCUGUCACCGGUGUAUUACCCUAGUGGUCGACCGGUCUGAUGAGUCUGUAAUGAGACGAAACAGC [GUAAUG]", 1.85),
]

The measurements presented in this section are drawn from the supplement of paper PMC6757056.
